studySystem: USP1/UAF1 enzyme (Homo sapiens)
Sequence (O94782 whole entry): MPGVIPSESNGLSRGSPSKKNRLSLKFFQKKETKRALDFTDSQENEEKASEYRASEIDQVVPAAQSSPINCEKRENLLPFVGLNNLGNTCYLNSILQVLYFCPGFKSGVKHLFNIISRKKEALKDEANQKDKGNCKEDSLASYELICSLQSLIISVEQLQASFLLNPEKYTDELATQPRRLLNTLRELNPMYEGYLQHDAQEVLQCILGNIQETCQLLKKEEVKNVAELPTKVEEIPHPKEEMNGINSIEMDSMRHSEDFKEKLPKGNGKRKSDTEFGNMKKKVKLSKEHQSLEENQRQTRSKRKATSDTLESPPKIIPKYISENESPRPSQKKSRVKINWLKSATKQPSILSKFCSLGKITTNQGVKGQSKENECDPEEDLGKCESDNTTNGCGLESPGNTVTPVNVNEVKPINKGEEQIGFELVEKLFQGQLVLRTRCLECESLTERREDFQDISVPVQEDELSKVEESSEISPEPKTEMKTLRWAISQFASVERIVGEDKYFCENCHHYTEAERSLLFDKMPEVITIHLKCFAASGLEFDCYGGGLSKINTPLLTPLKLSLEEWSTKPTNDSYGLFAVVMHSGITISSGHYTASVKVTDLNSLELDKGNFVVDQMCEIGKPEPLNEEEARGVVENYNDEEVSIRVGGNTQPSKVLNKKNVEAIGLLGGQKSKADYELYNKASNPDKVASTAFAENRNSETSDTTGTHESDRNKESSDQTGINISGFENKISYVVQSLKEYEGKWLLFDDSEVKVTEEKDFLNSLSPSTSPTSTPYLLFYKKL
Sequence (Q8TAF3 whole entry partner): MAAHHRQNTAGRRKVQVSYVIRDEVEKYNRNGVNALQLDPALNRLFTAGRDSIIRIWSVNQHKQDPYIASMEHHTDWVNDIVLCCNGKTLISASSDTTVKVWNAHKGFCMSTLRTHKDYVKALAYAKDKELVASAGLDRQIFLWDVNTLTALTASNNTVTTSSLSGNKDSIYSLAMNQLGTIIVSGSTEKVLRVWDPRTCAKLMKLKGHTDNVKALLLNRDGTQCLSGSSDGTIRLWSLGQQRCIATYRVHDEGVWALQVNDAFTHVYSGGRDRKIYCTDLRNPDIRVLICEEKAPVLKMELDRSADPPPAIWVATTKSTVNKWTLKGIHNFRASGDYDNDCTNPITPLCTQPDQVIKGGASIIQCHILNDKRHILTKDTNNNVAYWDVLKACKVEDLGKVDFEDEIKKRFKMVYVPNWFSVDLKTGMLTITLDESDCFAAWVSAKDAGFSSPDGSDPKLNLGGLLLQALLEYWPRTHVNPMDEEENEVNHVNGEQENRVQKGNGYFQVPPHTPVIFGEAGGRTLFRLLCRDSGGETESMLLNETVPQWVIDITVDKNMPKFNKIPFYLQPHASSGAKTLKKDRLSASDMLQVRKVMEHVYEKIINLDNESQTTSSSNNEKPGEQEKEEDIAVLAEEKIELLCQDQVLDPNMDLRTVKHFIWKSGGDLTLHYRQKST
assayComment: USP1/UAF1 deubiquitination assay (ubiquitin-rhodamine 110 substrate)
runConditions: read-out: USP1 IC50 (Ub-Rho)
pIC50: −log10 of the molar value.
valueType: pIC50

The recorded pIC50 for "Cc1cnn(C(C)C)c1-c1cc2n(n1)CCC(=O)N2Cc1ccc(-c2nc(C(F)(F)F)nn2C)cc1" is < 6.30

# pIC50 of "Cc1cnn(C(C)C)c1-c1cc2n(n1)CCCN2Cc1ccc(-n2nc(C(F)(F)F)cc2C)c(F)c1" = > 7.00

pIC50 reading for "COc1cc(C(F)(F)F)nn1-c1ccc(CN2CCCn3nc(-c4c(C)cnn4C(C)C)cc32)cc1F" : > 7.00

Per the record, "Cc1cnn(C(C)C)c1-c1cc2n(n1)CCCN2Cc1ccc(-c2nc(C(F)(F)F)cn2C)cc1" has pIC50 of > 7.00

For record "CCn1cc(C(F)(F)F)nc1-c1ccc([C@@H](C)n2c(=O)ccn3nc(-c4c(OC)ncnc4C4CC4)cc23)cc1F" the listed pIC50 is > 7.00

Query CC(C)n1ncc(Cl)c1-c1cc2n(n1)CC(O)C(=O)N2Cc1ccc(-c2nc(C(F)(F)F)cn2C)cc1 (stereo not shown) yields pIC50 of 6.30 to 7.00

# pIC50 (molecule: CCn1cc(C(F)(F)F)nc1-c1ccc(CN2C(=O)CCn3nc(-c4c(Cl)cnn4C4CCOC4)cc32)cc1 (stereo not shown) ) is 6.30 to 7.00
